Origin of values: patent US20250051276A1

biological target: UniProtKB P28223; assay: Serotonin 5-HT2A in vitro radioligand binding competition assay; design: purchased Epics Therapeutics S.A. (Belgium) FAST-0505B; host or cells: membrane extracts; settings: radiotracer [3H]-DOI, membrane extracts
pIC50: −log10 of the molar value.
Attribute: pIC50

C[C@H](Cn1ccc2cc(OCc3cccc(F)c3)ccc21)N(C)C = 6.00 to 7.00
C[C@H](Cn1ccc2cc(OCc3ccc(F)cc3)ccc21)N(C)C = 7.00 to 8.00
C[C@H](Cn1ccc2cc(OCc3ccccc3)ccc21)N(C)C = 6.00 to 7.00
C[C@@H](N)Cn1ccc2cc(OCc3ccccc3F)ccc21 = 5.00 to 6.00

Now consider a different molecule.
Task: Respond only with pIC50 recorded for CCN(CC)[C@H](C)Cn1ccc2cc(OCc3ccccc3)ccc21
Output: 5.00 to 6.00

###

biological target: 5-HT2A (Homo sapiens, UniProt P28223); experiment: Serotonin 5-HT2A in vitro cellular IPOne agonism assay; conditions: CHO-K1 cells, IPOne HTRF, agonist mode
Sequence (P28223 whole entry): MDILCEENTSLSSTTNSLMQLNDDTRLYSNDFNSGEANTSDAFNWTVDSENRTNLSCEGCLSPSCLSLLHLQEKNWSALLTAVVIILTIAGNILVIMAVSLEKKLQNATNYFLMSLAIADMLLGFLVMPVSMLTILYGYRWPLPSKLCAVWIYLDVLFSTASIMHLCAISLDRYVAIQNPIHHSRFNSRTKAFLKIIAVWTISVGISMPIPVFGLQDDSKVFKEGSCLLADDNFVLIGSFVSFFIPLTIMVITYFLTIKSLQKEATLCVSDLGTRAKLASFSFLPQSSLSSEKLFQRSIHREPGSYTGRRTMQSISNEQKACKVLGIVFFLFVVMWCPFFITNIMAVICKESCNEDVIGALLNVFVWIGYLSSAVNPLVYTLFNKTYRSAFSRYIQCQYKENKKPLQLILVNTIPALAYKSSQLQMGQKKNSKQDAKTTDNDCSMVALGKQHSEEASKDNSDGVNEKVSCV
assay.endpoint: EC50

C[C@H](Cn1ccc2cc(OCc3cccc(F)c3)ccc21)N(C)C = > 10 µM
CCN(CC)[C@H](C)Cn1ccc2cc(OCc3ccccc3)ccc21 = > 10 µM
CN[C@H](C)Cn1ccc2cc(OCc3ccccc3)ccc21 = > 10 µM

Now consider a different molecule.
Task: Respond only with EC50 recorded for C[C@@H](N)Cn1ccc2cc(OCc3cccc(F)c3)ccc21
Output: 1 to 10 µM
